Reported Kd values follow for various compounds
molecular target: S100A4 (Homo sapiens); construct: made in house; host or cells: Escherichia coli BL21(DE3); test: Pull-down assay with immobilized protein and LSM libraries; type: binding; conditions: H14 library; 1:1 binding assumed; read-out: Surface mapping KD (apparent)
Sequence (P26447 whole entry): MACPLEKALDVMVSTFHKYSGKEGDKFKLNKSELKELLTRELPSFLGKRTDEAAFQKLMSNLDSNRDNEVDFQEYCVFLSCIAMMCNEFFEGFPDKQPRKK
Give the value in µM but do not write µM after it.

Below, each entry is followed by its recorded Kd result.
Record request: Kd value, item N=C(N)NCCC[C@@H](CC(=O)N[C@H]1CCCC[C@@H]1C(N)=O)NC(=O)[C@H]1CCCC[C@@H]1NC(=O)[C@H]1CCCC[C@@H]1NC(=O)C[C@H](CO)NC(=O)[C@H]1CCCC[C@@H]1N 188

Give the measured Kd of CC[C@H](C)[C@@H](CC(=O)N[C@H]1CCCC[C@@H]1C(N)=O)NC(=O)[C@H]1CCCC[C@@H]1NC(=O)[C@H]1CCCC[C@@H]1NC(=O)C[C@H](CO)NC(=O)[C@H]1CCCC[C@@H]1N . 19

// returns reported Kd for input CC[C@H](C)[C@@H](CC(=O)N[C@H]1CCCC[C@@H]1C(=O)N[C@H]1CCCC[C@@H]1C(=O)N[C@H](CC(=O)N[C@H]1CCCC[C@@H]1C(N)=O)Cc1ccccc1)NC(=O)[C@H]1CCCC[C@@H]1N 2

Continuing:
Requested field: Kd. Item: NC(=O)[C@H]1CCCC[C@@H]1NC(=O)C[C@H](Cc1ccccc1)NC(=O)[C@H]1CCCC[C@@H]1NC(=O)[C@H]1CCCC[C@@H]1NC(=O)C[C@H](Cc1ccccc1)NC(=O)[C@H]1CCCC[C@@H]1N 12

Quick check: Kd of CSCC[C@@H](CC(=O)N[C@H]1CCCC[C@@H]1C(N)=O)NC(=O)[C@H]1CCCC[C@@H]1NC(=O)[C@H]1CCCC[C@@H]1NC(=O)C[C@@H](NC(=O)[C@H]1CCCC[C@@H]1N)[C@@H](C)O ? 13

Could you tell me which Kd is on file for CC(C)[C@@H](CC(=O)N[C@H]1CCCC[C@@H]1C(N)=O)NC(=O)[C@H]1CCCC[C@@H]1NC(=O)[C@H]1CCCC[C@@H]1NC(=O)C[C@H](CO)NC(=O)[C@H]1CCCC[C@@H]1N ? 34

# lookup: Kd of CC(C)C[C@@H](CC(=O)N[C@H]1CCCC[C@@H]1C(=O)N[C@H]1CCCC[C@@H]1C(=O)N[C@@H](CCCCN)CC(=O)N[C@H]1CCCC[C@@H]1C(N)=O)NC(=O)[C@H]1CCCC[C@@H]1N 312

Any idea what its Kd is? The compound is CC(C)[C@@H](CC(=O)N[C@H]1CCCC[C@@H]1C(=O)N[C@H]1CCCC[C@@H]1C(=O)N[C@@H](CO)CC(=O)N[C@H]1CCCC[C@@H]1C(N)=O)NC(=O)[C@H]1CCCC[C@@H]1N 263

Recorded Kd of CSCC[C@@H](CC(=O)N[C@H]1CCCC[C@@H]1C(=O)N[C@H]1CCCC[C@@H]1C(=O)N[C@H](CC(=O)N[C@H]1CCCC[C@@H]1C(N)=O)CC(C)C)NC(=O)[C@H]1CCCC[C@@H]1N , please. 11

----------
Listed below: pKd values for each entry.
Target: CaM (Bos taurus, UniProt P62157)
Construct: made in house; host or cells: E. coli BL21 (DE3)
Experiment: Pull-down assay with immobilized protein and LSM libraries
Format: binding, bovine
Details: H12 library; 1:2 stoichiometry assumed; read-out: Surface mapping KD (apparent)
Description: Pull-down assays with immobilized test proteins and foldameric LSM libraries were carried out. Proteins were equilibrated with LSM probes, and equilibrium bound fractions (FB) were determined from the unbound fractions measured by HPLC-MS methods. Hits were corrected with background binding of the resin. […] MS data analysis. […] Using these processing setups, all raw data files were reprocessed together and analyzed. […]
Answer as the number alone; pKd is minus log10 of concentration in mol/L.

# pKd lookup, item NC(=O)[C@H]1CCC[C@@H]1NC(=O)[C@H]1CCC[C@@H]1NC(=O)C[C@H](CC(=O)O)NC(=O)[C@H]1CCC[C@@H]1NC(=O)[C@H]1CCC[C@@H]1NC(=O)C[C@H](CO)NC(=O)[C@H]1CCC[C@@H]1NC(=O)[C@H]1CCC[C@@H]1N 3.36

New cases:
Field request: pKd | item: NC(=O)C[C@@H](CC(=O)N[C@H]1CCC[C@@H]1C(=O)N[C@H]1CCC[C@@H]1C(=O)N[C@@H](CC(=O)O)CC(=O)N[C@H]1CCC[C@@H]1C(=O)N[C@H]1CCC[C@@H]1C(N)=O)NC(=O)[C@H]1CCC[C@@H]1NC(=O)[C@H]1CCC[C@@H]1N 3.40

Form field: reported pKd of CC[C@H](C)[C@@H](CC(=O)N[C@H]1CCC[C@@H]1C(=O)N[C@H]1CCC[C@@H]1C(N)=O)NC(=O)[C@H]1CCC[C@@H]1NC(=O)[C@H]1CCC[C@@H]1NC(=O)C[C@@H](NC(=O)[C@H]1CCC[C@@H]1NC(=O)[C@H]1CCC[C@@H]1N)[C@@H](C)O 3.96

Consider the molecule C[C@@H](O)[C@@H](CC(=O)N[C@H]1CCC[C@@H]1C(=O)N[C@H]1CCC[C@@H]1C(N)=O)NC(=O)[C@H]1CCC[C@@H]1NC(=O)[C@H]1CCC[C@@H]1NC(=O)C[C@H](CCC(N)=O)NC(=O)[C@H]1CCC[C@@H]1NC(=O)[C@H]1CCC[C@@H]1N and give its measured pKd. 3.35
